# System: cancer stem cells
# METHOD DESCRIPTION: Survival rate of cancer stem cells after test compound is added (flow cytometry, Annexin V-FITC/PI, clinical specimen)
# Type: cell-based, patient
# CONDITIONS USED: Homo sapiens, 18 h, Breast cancer; 20.0 μM
Note to self: viability at 20 µM under 70% means 1 (yes), ties and anything higher get 0 (no).

Given C=C1C(=O)O[C@H]2[C@H]1CCC(C)=C1CC[C@@](C)(OC(=O)CCCc3cn(CCCCCCO)nn3)[C@@H]12 , is recorded viability at 20 µM strictly lower than 70%?
1 (yes)

viability at 20 µM under 70%? Item: [2H][C@@]1(CN(C)C)C(=O)O[C@@H]2[C@@H]3[C@@H](CCC34CC4)C3(CC[C@H]21)CC3
0 (no)

Report whether reported viability at 20 µM is lower than 70% (strictly) for C=C1C(=O)O[C@H]2[C@H]1CC[C@]1(C)O[C@@]13CC[C@@](C)(O)[C@H]23
1 (yes)

Hi there! Is viability at 20 µM for C=C1C(=O)O[C@@H]2[C@@H]3[C@@H](CCC34CC4)C3(CC[C@@H]12)CC3 below 70%, do you know?
0 (no)

Item C=C1C(=O)O[C@@H]2[C@@H]3[C@@H](CC[C@@]3(C)O)C(=C)CC[C@@H]12 : viability at 20 µM beneath 70%, strictly?
1 (yes)

Quick check: does C=C1C(=O)O[C@@H]2[C@@H]3[C@@H](CC[C@@]3(C)O)[C@](C)(O)CC[C@@H]12 have viability at 20 µM under 70%?
0 (no)
